Test system: HS 578T breast
Experiment description: NCI tumour cell line growth inhibition, 48 h; in the data active = GI50 below about 0.43 µM; inactive = the rest
Labels: T for active, F for inactive

> print(dat)
                                smiles.text    study.system  class.name
1      N/C(=N\C(N)=N\c1nc2ccccc2s1)c1cnccn1  HS 578T breast           F
2  Cc1ccnc(Nc2ccc([N+](=O)[O-])c(NCCN3CCOCC3)n2)c1  HS 578T breast           T
3                  Nc1nc(=S)c2[nH]cnc2[nH]1  HS 578T breast           F
4  COc1ccc(-c2cc(-c3ccccc3)nc(NCCNc3ccnc4cc(Cl)ccc34)n2)cc1  HS 578T breast           F
5           NC(N)=N/N=C(/c1ccccc1)c1ccccc1F  HS 578T breast           F
